pIC50: −log10 of the molar value.
Collected set of pIC50 measured with UniProtKB Q13547 across studies.
Sequence (Q13547 whole entry): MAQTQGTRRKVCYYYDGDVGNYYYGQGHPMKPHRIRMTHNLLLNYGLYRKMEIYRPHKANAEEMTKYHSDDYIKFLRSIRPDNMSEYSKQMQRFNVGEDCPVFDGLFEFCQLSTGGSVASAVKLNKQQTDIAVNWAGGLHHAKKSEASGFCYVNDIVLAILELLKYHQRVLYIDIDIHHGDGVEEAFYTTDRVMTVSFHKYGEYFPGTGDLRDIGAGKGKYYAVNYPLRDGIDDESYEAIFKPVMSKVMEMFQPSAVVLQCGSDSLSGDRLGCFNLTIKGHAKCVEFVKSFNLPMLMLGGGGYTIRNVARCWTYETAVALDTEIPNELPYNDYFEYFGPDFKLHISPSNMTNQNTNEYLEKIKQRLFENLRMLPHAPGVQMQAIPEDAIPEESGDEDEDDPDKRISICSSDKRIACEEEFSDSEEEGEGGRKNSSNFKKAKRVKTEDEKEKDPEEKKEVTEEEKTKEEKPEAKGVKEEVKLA
Assign class by pIC50: not lower than 7 means Fulfilled; lower than 7 means Not fulfilled.

| molecule | class_assignment |
| --- | --- |
| Nc1ccccc1NC(=O)CCCCCCNC(=O)c1ccc(NC(=O)Nc2ccc(-c3nc(OC4CCOC4)nc(N4CCOCC4)n3)cc2)cc1 (stereo not given) | Not fulfilled |
| Nc1ccccc1NC(=O)c1ccc(CCCn2ncc3c2nc(N)n2nc(-c4ccco4)nc32)cc1 | Not fulfilled |
| C[C@H](NC(=O)[C@H](CC(=O)NC(C)(C)C)NC(=O)c1ccc(C(=O)NO)cc1)C(=O)NCc1ccccc1 | Not fulfilled |
| Nc1ccccc1NC(=O)c1ccc(CN(CCO)Cc2ccc3c(c2)OCO3)cc1 | Not fulfilled |
| O=C(NO)c1cccs1 | Not fulfilled |
| O=C(CCc1ccccc1)Nc1ccc2cc(C(=O)NO)sc2c1 | Fulfilled |
| O=C(NO)c1ccc(CN2CCN(C(=O)c3c[nH]c4cccc(Cc5ccccc5)c34)CC2)cc1 | Not fulfilled |
| COc1cc(OC)cc(N(CCNC(C)C)c2ccc3ncc(-c4cnn(Cc5ccc(/C=C/C(=O)NO)cc5)c4)nc3c2)c1 | Fulfilled |
| COc1cc(Nc2ncnc3ccc(-c4cn(CCCCCC(=O)NO)nn4)cc23)ccc1Oc1ccccc1 | Fulfilled |
| Cc1ccc(CN2C(=O)N(c3ccc(Cl)cc3)C(=O)C2CCC(=O)Nc2ccc(C(=O)NO)cc2)cc1 (stereo not given) | Not fulfilled |
| Cc1ccc(-c2csc(NC(=O)CCCCCCS)n2)cc1 | Fulfilled |
| COc1cc(OC)cc(N(CC2CC2)c2ccc3ncc(-c4cnn(CCCC(=O)NO)c4)nc3c2)c1 | Not fulfilled |
| Cn1c(CNc2cccc3ccccc23)nc2cc(C(=O)NO)ccc21 | Not fulfilled |
| O=C(NO)c1cccc2ccccc12 | Not fulfilled |
| Nc1ccccc1NC(=O)CCCCCCC(=O)c1ccc(-c2cccnc2)cc1 | Not fulfilled |
| O=C(NO)c1ccc(NC2CCN(c3ccc(Cl)cc3)C2=O)c(Cl)c1 (stereo not given) | Not fulfilled |
| O=C(NO)c1ccc(/C=C/c2cccc(-c3cc(F)ccc3O)c2)cc1 | Not fulfilled |
